Cited source for all entries: ChEMBL document CHEMBL3046845

Items are presented alongside their recorded inhibition at 504 h.
test: Phytoxicity against Hordeum vulgare (barley) assessed as growth inhibition at 125 g/ha after 3 weeks relative to control; assay type: organism-based; conditions: in vivo, read-out: GI

compound structure string | inhibition at 504 h / %
C#CCOC(=O)[C@@H](C)Oc1ccc(Oc2ncc(Cl)cc2F)cc1 | 20
CCOC(=O)[C@@H](C)Oc1ccc(Oc2ncc(Cl)cc2F)cc1 | 27
CCCOC(=O)[C@@H](C)Oc1ccc(OC(=O)[C@@H](C)Oc2ccc(Oc3ncc(Cl)cc3F)cc2)cc1 | 15
CCCOC(=O)[C@@H](C)Oc1ccc(Oc2ncc(Cl)cc2F)cc1 | 35
C#CCOC(=O)[C@@H](C)Oc1ccc(OC(=O)[C@@H](C)Oc2ccc(Oc3ncc(Cl)cc3F)cc2)cc1 | 0
CCOC(=O)[C@@H](C)Oc1ccc(OC(=O)[C@@H](C)Oc2ccc(Oc3ncc(Cl)cc3F)cc2)cc1 | 10

###

system: Avena fatua; assay: Herbicidal activity against Avena fatua assessed as growth inhibition at 125 g/ha after 3 weeks relative to control; assay type: functional; conditions: 504 h, read-out: GI
Kindly return criterion met if reported inhibition of growth at 125 g/ha is no lower than 90%; return criterion not met if it is lower.

compound structure string | measured on | class assignment
CC(C)OC(=O)[C@@H](C)Oc1ccc(Oc2ncc(Cl)cc2F)cc1 | Avena fatua | criterion not met
C#CCOC(=O)[C@@H](C)Oc1ccc(Oc2ncc(Cl)cc2Cl)cc1 | Avena fatua | criterion not met
CCCOC(=O)[C@@H](C)Oc1ccc(Oc2ncc(Cl)cc2Cl)cc1 | Avena fatua | criterion not met
C#CCOC(=O)[C@@H](C)Oc1ccc(Oc2ncc(Cl)cc2F)cc1 | Avena fatua | criterion met
CCOC(=O)[C@@H](C)Oc1ccc(OC(=O)[C@@H](C)Oc2ccc(Oc3ncc(Cl)cc3F)cc2)cc1 | Avena fatua | criterion met
CCCOC(=O)[C@@H](C)Oc1ccc(Oc2ncc(Cl)cc2F)cc1 | Avena fatua | criterion not met
COC(=O)[C@@H](C)Oc1ccc(OC(=O)[C@@H](C)Oc2ccc(Oc3ncc(Cl)cc3Cl)cc2)cc1 | Avena fatua | criterion not met
CCCCOC(=O)[C@@H](C)Oc1ccc(OC(=O)[C@@H](C)Oc2ccc(Oc3ncc(Cl)cc3F)cc2)cc1 | Avena fatua | criterion not met
CCOC(=O)[C@@H](C)Oc1ccc(Oc2ncc(Cl)cc2Cl)cc1 | Avena fatua | criterion not met
CCCCOC(=O)[C@@H](C)Oc1ccc(Oc2ncc(Cl)cc2F)cc1 | Avena fatua | criterion not met
C#CCOC(=O)[C@@H](C)Oc1ccc(OC(=O)[C@@H](C)Oc2ccc(Oc3ncc(Cl)cc3F)cc2)cc1 | Avena fatua | criterion met
C#CCOC(=O)[C@@H](C)Oc1ccc(OC(=O)[C@@H](C)Oc2ccc(Oc3ncc(Cl)cc3Cl)cc2)cc1 | Avena fatua | criterion not met
CCCOC(=O)[C@@H](C)Oc1ccc(OC(=O)[C@@H](C)Oc2ccc(Oc3ncc(Cl)cc3Cl)cc2)cc1 | Avena fatua | criterion not met
CCOC(=O)[C@@H](C)Oc1ccc(OC(=O)[C@@H](C)Oc2ccc(Oc3ncc(Cl)cc3Cl)cc2)cc1 | Avena fatua | criterion not met
COC(=O)[C@@H](C)Oc1ccc(Oc2ncc(Cl)cc2Cl)cc1 | Avena fatua | criterion not met
CC(C)OC(=O)[C@@H](C)Oc1ccc(OC(=O)[C@@H](C)Oc2ccc(Oc3ncc(Cl)cc3F)cc2)cc1 | Avena fatua | criterion not met
